- TEST SYSTEM: α-glucosidase (rice) (Oryza sativa subsp. japonica)
- Construct: purchased Sigma
- Sequence (Q653V7 34-885): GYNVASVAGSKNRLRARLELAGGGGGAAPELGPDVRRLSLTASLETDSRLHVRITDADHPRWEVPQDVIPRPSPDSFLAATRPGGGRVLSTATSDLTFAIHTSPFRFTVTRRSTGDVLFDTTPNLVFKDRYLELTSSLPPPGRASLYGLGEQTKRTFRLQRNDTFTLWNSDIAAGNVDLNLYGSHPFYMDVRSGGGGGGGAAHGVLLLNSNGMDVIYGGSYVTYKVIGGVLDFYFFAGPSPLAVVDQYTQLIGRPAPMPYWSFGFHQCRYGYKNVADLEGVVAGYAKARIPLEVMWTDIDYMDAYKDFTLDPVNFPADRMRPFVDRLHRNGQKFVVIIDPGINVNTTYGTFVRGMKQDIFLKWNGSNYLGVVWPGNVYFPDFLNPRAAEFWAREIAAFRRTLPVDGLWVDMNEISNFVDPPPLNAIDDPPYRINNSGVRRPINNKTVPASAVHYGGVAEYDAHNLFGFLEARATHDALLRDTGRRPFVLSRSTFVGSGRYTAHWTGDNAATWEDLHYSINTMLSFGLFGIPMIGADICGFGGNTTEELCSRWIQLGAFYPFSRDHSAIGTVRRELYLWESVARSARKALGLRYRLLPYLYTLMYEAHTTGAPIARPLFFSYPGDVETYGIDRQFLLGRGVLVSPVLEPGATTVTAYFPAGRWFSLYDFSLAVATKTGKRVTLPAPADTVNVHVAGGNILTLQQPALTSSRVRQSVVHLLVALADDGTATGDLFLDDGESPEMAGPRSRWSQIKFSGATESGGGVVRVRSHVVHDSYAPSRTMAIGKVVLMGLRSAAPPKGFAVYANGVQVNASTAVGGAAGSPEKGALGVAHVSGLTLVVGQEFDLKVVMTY
- PROTOCOL DESCRIPTION: Inhibition of rice α-glucosidase, maltose substrate, glucose oxidase/peroxidase coupled assay
- Type: biochemical
- TEST CONDITIONS: maltose substrate, sodium acetate buffer pH 4.0, 37° C.
pKi: −log10 of the molar value.
EXPERIMENTAL READOUT: pKi

INSERT INTO assay_data (structure_smiles, experimental_readout, observed_value) VALUES
  ('O[C@H]1[C@H](O)[C@@H](O)CN2CCSC[C@H]12', 'pKi', 3.05);
